IC50 by entry:
Target: recombinant firefly luciferase (Photinus pyralis, UniProt P08659)
Sequence (P08659 whole entry): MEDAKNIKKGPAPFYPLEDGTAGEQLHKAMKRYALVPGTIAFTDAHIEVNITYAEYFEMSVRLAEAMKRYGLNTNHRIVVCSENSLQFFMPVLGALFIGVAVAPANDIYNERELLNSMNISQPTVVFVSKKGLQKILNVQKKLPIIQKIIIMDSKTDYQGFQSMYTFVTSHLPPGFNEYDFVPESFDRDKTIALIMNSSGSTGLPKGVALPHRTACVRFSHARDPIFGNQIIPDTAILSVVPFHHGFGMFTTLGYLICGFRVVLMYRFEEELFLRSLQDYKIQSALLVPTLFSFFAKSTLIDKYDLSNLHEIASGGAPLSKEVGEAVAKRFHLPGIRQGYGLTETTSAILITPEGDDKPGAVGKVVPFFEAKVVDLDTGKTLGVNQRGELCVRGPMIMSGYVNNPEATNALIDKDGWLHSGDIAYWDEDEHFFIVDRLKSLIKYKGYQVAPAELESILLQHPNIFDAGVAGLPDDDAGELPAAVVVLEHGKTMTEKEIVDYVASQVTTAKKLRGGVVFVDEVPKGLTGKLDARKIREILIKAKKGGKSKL
Assay: biochemical
Settings: dose response; read-out: rLuc inhibition dose response: IC50

The examples below pair each entry with its known result.
compound	IC50
CCc1nc(CN2CCCN(c3ncnc4ccccc34)CC2)no1 [UCSD-0620461]	> 50 µM
Cc1cc(-c2cnc(NCc3cccnc3)nc2C(C)(C)C)on1 [UCSD-0802583]	> 25 µM
Cc1ncc(CN2CCOC(c3ccc(-c4ccccc4F)cn3)C2)s1 (stereo not drawn) [UCSD-0800928]	> 25 µM
N#Cc1c(Cl)nsc1NCc1cccnc1OCC(F)(F)F [UCSD-0808444]	> 25 µM
CCCc1cncnc1N1CCC(NCc2cc3ccccc3[nH]2)CC1 [UCSD-0834906]	> 25 µM
Cc1cc(C(=O)N2CCN(c3nc4c(C(C)C)cccc4s3)CC2)on1 [UCSD-0787150]	> 50 µM

I have this compound here, CCc1cnc(N)nc1NC(C)c1ccc(C)c(C)c1 (stereo not drawn) [UCSD-0831195] , and I need its recorded IC50.
> 50 µM

I have this compound here, COCCCNC1N=C(n2nc(C)cc2C)Nc2sc3c(c21)CCCC3 (stereo not drawn) [UCSD-0796603] , and I need its recorded IC50.
> 25 µM

I have this compound here, COCc1noc(-c2ccc(N3CCCCC3CO)nc2)n1 (stereo not drawn) [UCSD-0838277] , and I need its recorded IC50.
6.29 µM

I have this compound here, COc1ccc(-c2ccc(C3CNCCO3)nc2)cc1 (stereo not drawn) [UCSD-0802458] , and I need its recorded IC50.
0.0276 µM

I have this compound here, COc1c(CNCc2ccc(C(=O)N(C)C(C)C)cc2)c(C)nn1C [UCSD-0723791] , and I need its recorded IC50.
> 25 µM
